# Tested on: thymus
# test.summary: Systemic activity after local administration: effect on the weight of the thymus
# Assay type: in vivo, male Sprague-Dawley I.O.P.S. rats
# condition.label: rat, in vivo, 8640 min
parameter: R 2 (relative effect on thymus weight compared with D.P.B.)
Enter the number alone.

# molecule, readout.number
data = [
    ("CCCCC(=O)OC1(C(=O)CSC(C)=O)C(C)CC2C3CCC4=CC(=O)C=CC4(C)C3(F)C(O)CC21C (stereo not shown) [Ex. 13]", 1.1),
]

# context switch: different molecule, same R 2 (relative effect on thymus weight compared with D.P.B.)
So for CCC(=O)OC1(C(=O)CSC(C)=O)C(C)CC2C3CCC4=CC(=O)C=CC4(C)C3(F)C(O)CC21C (stereo not shown) [Ex. 10] , the logged R 2 (relative effect on thymus weight compared with D.P.B.) turned out to be 3.40

====

# test.summary: Systemic activity after local administration: effect on weight gain
# Assay type: in vivo, male Sprague-Dawley I.O.P.S. rats
# condition.label: rat, in vivo, 8640 min
Reported ED30 (30% inhibition in the weight gain) values for the following molecules.

Would you please look over these solved cases?
# molecule, ED30 (30% inhibition in the weight gain)
rows = [
    ("CCC(=O)OC1(C(=O)CSC(=O)CC)C(C)CC2C3CCC4=CC(=O)C=CC4(C)C3(F)C(O)CC21C (stereo not shown) [Ex. 11]", "0.8 mg/pellet"),
    ("CCCCC(=O)OC1(C(=O)CSC(=O)CCCC)C(C)CC2C3CCC4=CC(=O)C=CC4(C)C3(Cl)C(O)CC21C (stereo not shown) [Ex. 18]", "> 1.0 mg/pellet"),
    ("CCC(=O)OC1(C(=O)CSC(C)=O)C(C)CC2C3CCC4=CC(=O)C=CC4(C)C3(F)C(O)CC21C (stereo not shown) [Ex. 10]", "> 1 mg/pellet"),
    ("CC(=O)OC1(C(=O)CSC(C)=O)C(C)CC2C3CCC4=CC(=O)C=CC4(C)C3(F)C(O)CC21C (stereo not shown) [Ex. 8]", "1 mg/pellet"),
]

So for CCCCC(=O)SCC(=O)C1(OC(=O)CC)C(C)CC2C3CCC4=CC(=O)C=CC4(C)C3(Cl)C(O)CC21C (stereo not shown) [Ex. 16] , the logged ED30 (30% inhibition in the weight gain) turned out to be > 1.0 mg/pellet

So for CCC(=O)OC1(C(=O)CSC(=O)CC)C(C)CC2C3CCC4=CC(=O)C=CC4(C)C3(Cl)C(O)CC21C (stereo not shown) [Ex. 15] , the logged ED30 (30% inhibition in the weight gain) turned out to be 0.56 mg/pellet

So for CC(=O)SCC(=O)[C@@]1(OC(=O)c2ccccc2)CC[C@H]2[C@@H]3C[C@H](C)C4=CC(=O)C=C[C@]4(C)[C@H]3[C@@H](O)C[C@@]21C [Ex. 4] , the logged ED30 (30% inhibition in the weight gain) turned out to be > 5 mg/pellet

So for CCCCC(=O)O[C@]1(C(=O)CSC(=O)C(C)(C)C)CC[C@H]2[C@@H]3CCC4=CC(=O)CC[C@]4(C)[C@H]3[C@@H](O)C[C@@]21C [Ex. 2] , the logged ED30 (30% inhibition in the weight gain) turned out to be > 3.4 mg/pellet

So for CCCCC(=O)OC1(C(=O)CSC(C)=O)C(C)CC2C3CCC4=CC(=O)C=CC4(C)C3(Cl)C(O)CC21C (stereo not shown) [Ex. 17] , the logged ED30 (30% inhibition in the weight gain) turned out to be > 1.0 mg/pellet

So for CCC(=O)O[C@]1(C(=O)CSC(=O)CC)CC[C@H]2[C@@H]3C[C@H](C)C4=CC(=O)C=C[C@]4(C)[C@H]3[C@@H](O)C[C@@]21C [Ex. 5] , the logged ED30 (30% inhibition in the weight gain) turned out to be > 1 mg/pellet

====

# test.summary: Systemic activity after local administration: effect on weight gain
# Format: in vivo, male Sprague-Dawley I.O.P.S. rats
# condition.label: rat, in vivo, 8640 min
Reported R 3 (relative activity on weight gain compared with D.P.B.) values for the following compounds.

Would you please look over these solved cases?
# compound, result
rows = [
    ("CCCCC(=O)OC1(C(=O)CSC(=O)CCCC)C(C)CC2C3CCC4=CC(=O)C=CC4(C)C3(Cl)C(O)CC21C (centres unmarked)", "< 0.8"),
    ("CCCCC(=O)O[C@]1(C(=O)CSC(=O)CCCC)CC[C@H]2[C@@H]3C[C@H](C)C4=CC(=O)C=C[C@]4(C)[C@H]3[C@@H](O)C[C@@]21C", "< 0.8"),
    ("CCCCC(=O)OC1(C(=O)CSC(C)=O)C(C)CC2C3CCC4=CC(=O)C=CC4(C)C3(F)C(O)CC21C (centres unmarked)", 1.23),
    ("CC(=O)SCC(=O)[C@@]1(OC(=O)c2ccccc2)CC[C@H]2[C@@H]3C[C@H](C)C4=CC(=O)C=C[C@]4(C)[C@H]3[C@@H](O)C[C@@]21C", "< 0.16"),
]

# context switch: different compound, same R 3 (relative activity on weight gain compared with D.P.B.)
So for CCCCC(=O)O[C@]1(C(=O)CSC(C)=O)CC[C@H]2[C@@H]3C[C@H](C)C4=CC(=O)C=C[C@]4(C)[C@H]3[C@@H](O)C[C@@]21C , the logged R 3 (relative activity on weight gain compared with D.P.B.) turned out to be < 0.8

====

# Tested on: thymus
# test.summary: Systemic activity after local administration: effect on the weight of the thymus
# Assay type: in vivo, male Sprague-Dawley I.O.P.S. rats
# condition.label: rat, in vivo, 8640 min
parameter: R 2 (relative effect on thymus weight compared with D.P.B.)

Would you please look over these solved cases?
# molecule, test.system, result
data = [
    ("CCCCC(=O)O[C@]1(C(=O)CSC(=O)CCCC)CC[C@H]2[C@@H]3C[C@H](C)C4=CC(=O)C=C[C@]4(C)[C@H]3[C@@H](O)C[C@@]21C", "thymus", "< 0.86"),
    ("CCCCC(=O)OC1(C(=O)CSC(C)=O)C(C)CC2C3CCC4=CC(=O)C=CC4(C)C3(Cl)C(O)CC21C (stereo not drawn)", "thymus", "< 0.86"),
    ("CCCCC(=O)SCC(=O)C1(OC(=O)CC)C(C)CC2C3CCC4=CC(=O)C=CC4(C)C3(Cl)C(O)CC21C (stereo not drawn)", "thymus", "< 0.86"),
    ("CCCCC(=O)O[C@]1(C(=O)CSC(C)=O)CC[C@H]2[C@@H]3C[C@H](C)C4=CC(=O)C=C[C@]4(C)[C@H]3[C@@H](O)C[C@@]21C", "thymus", "< 0.86"),
    ("CCCCC(=O)OC1(C(=O)CSC(=O)CCCC)C(C)CC2C3CCC4=CC(=O)C=CC4(C)C3(Cl)C(O)CC21C (stereo not drawn)", "thymus", "< 0.86"),
]

# context switch: different molecule, same R 2 (relative effect on thymus weight compared with D.P.B.)
So for CCC(=O)SCC(=O)C1(OC(C)=O)C(C)CC2C3CCC4=CC(=O)C=CC4(C)C3(F)C(O)CC21C (stereo not drawn) , the logged R 2 (relative effect on thymus weight compared with D.P.B.) turned out to be 0.51

====

# test.summary: Systemic activity after local administration: effect on weight gain
# Format: in vivo, male Sprague-Dawley I.O.P.S. rats
# condition.label: rat, in vivo, 8640 min
Reported ED30 (30% inhibition in the weight gain) values for the following molecules.
Write the answer as a number in mg/pellet, unit excluded.

# molecule, readout.number
records = [
    ("CC(=O)OC1(C(=O)CSC(=O)CC(C)(C)C)C(C)CC2C3CCC4=CC(=O)C=CC4(C)C3(F)C(O)CC21C (stereo not drawn)", 0.015),
]

So for CCCCC(=O)OC1(C(=O)CSC(C)=O)C(C)CC2C3CCC4=CC(=O)C=CC4(C)C3(F)C(O)CC21C (stereo not drawn) , the logged ED30 (30% inhibition in the weight gain) turned out to be 0.65
